experimental_system: Human Kv1.5 channels (Homo sapiens, UniProt P22460)
Construct: expressed in transfected cells; host or cells: Xenopus laevis oocytes injected with in vitro synthesized Kv1.5-encoding RNA
Sequence (P22460 whole entry): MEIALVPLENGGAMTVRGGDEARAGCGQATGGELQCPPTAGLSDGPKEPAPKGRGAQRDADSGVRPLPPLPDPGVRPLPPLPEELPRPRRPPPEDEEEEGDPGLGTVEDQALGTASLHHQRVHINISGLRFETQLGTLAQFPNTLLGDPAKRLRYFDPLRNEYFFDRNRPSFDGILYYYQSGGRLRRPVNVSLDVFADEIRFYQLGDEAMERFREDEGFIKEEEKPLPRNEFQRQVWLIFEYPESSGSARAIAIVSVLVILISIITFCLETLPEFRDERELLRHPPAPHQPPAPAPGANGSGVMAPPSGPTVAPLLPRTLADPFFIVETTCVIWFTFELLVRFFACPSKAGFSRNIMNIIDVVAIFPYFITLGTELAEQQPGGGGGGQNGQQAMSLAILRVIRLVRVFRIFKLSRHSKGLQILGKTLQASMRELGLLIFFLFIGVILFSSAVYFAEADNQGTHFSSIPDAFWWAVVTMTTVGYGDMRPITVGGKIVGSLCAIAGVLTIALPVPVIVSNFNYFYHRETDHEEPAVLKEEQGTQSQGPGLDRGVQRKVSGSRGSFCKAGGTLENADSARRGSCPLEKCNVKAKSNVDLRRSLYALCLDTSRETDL
assay_protocol: Kv1.5 currents in Xenopus oocytes, two-microelectrode voltage clamp
Assay type: cell-based
conditions: human Kv1.5 expressed in Xenopus laevis oocytes; voltage jumps 500 ms to 0 mV and 40 mV; room temperature; Hill equation
Field: pIC50. Provide a value for each of the molecules that follow.
In plain terms, pIC50 is the concentration in mol/L turned into minus its base-10 logarithm.

-- ask Reported pIC50, molecule Cc1ccc(S(=O)(=O)Nc2ccccc2C(=O)N(Cc2ccccc2)Cc2nccs2)cc1 : ____
-- reply 6.00

-- ask Name the recorded pIC50 for C#CC(NC(=O)c1cc(C)ccc1NS(=O)(=O)CCCC)c1ccccc1 (centres unmarked) .
-- reply 5.66

-- ask // lookup pIC50 for COc1ccc(NS(=O)(=O)c2ccc(C)cc2)c(C(=O)NC(C)(C)c2ccccc2)c1
-- reply 5.85

-- ask I have this molecule here, CCC(c1ccccc1)N(C)C(=O)c1ccccc1NS(=O)(=O)c1ccccc1 (centres unmarked) , and I need its recorded pIC50.
-- reply 6.15

-- ask Recorded pIC50 for Cc1ccc(S(=O)(=O)Nc2ccccc2C(=O)N(Cc2ccccc2)Cc2ccco2)cc1 , please?
-- reply 5.80

-- ask Data request, read-out pIC50, for CCC(NC(=O)c1c(C)cccc1NS(=O)(=O)c1ccc(Cl)cc1)c1ccccc1 (centres unmarked)
-- reply 5.52

-- ask Any idea what pIC50 was measured for CCc1ccc(S(=O)(=O)Nc2ccccc2C(=O)N[C@@H](CC)c2ccccc2)cc1 ?
-- reply 5.59

-- ask Give the measured pIC50 of O=C(NC(c1ccccc1)c1ccccn1)c1cc(Cl)ccc1NS(=O)(=O)c1ccccc1 (centres unmarked) .
-- reply 5.29

* * *

experimental_system: Human Kv1.5 channels (Homo sapiens)
assay_protocol: Kv1.5 currents in Xenopus oocytes, two-microelectrode voltage clamp
conditions: human Kv1.5 expressed in Xenopus laevis oocytes; voltage jumps 500 ms to 0 mV and 40 mV; room temperature; Hill equation
result_type: pIC50
Would you please state pIC50, meaning minus log10 of the concentration in mol/L, as a bare number?

-- ask Endpoint output: pIC50 of Cc1ccc(S(=O)(=O)Nc2ccccc2C(=O)N(Cc2ccccc2)CC2CC2)cc1 . Value?
-- reply 5.72

-- ask Quick one: pIC50 for COc1cccc(CN(CC2CC2)C(=O)c2ccccc2NS(=O)(=O)c2ccc(C)cc2)c1 ?
-- reply 5.49

-- ask Consider the molecule shown here: Cc1ccc(S(=O)(=O)Nc2ccccc2C(=O)N(Cc2ccccc2)Cc2nccn2C)cc1 What is its recorded pIC50?
-- reply 6.15

-- ask What value of pIC50 has been reported for the following molecule? Cc1ccc(S(=O)(=O)Nc2ccc(C)cc2C(=O)NC(c2ccccn2)C2CC2)cc1 (stereo not shown)
-- reply 6.22

* * *

Could you please report measured pIC50 for the items listed next?
experimental_system: Human Kv1.5 channels (Homo sapiens)
assay_protocol: Kv1.5 currents in Xenopus oocytes, two-microelectrode voltage clamp
conditions: human Kv1.5 expressed in Xenopus laevis oocytes; voltage jumps 500 ms to 0 mV and 40 mV; room temperature; Hill equation
# reply with the number alone; pIC50 is -log10 of concentration in mol/L

-- ask Which measured pIC50 belongs to Cc1ccc(S(=O)(=O)Nc2ccccc2C(=O)NC(C)c2ccccc2)cc1 (centres unmarked) , tested on Human Kv1.5 channels (Homo sapiens)?
-- reply 5.49

-- ask Fill in the recorded pIC50 for this compound, with Human Kv1.5 channels (Homo sapiens) as test system: CC[C@H](NC(=O)c1ccccc1NS(=O)(=O)c1ccc(Cl)cc1)c1ccccc1
-- reply 5.54

-- ask Could you share what pIC50 was measured for Cc1ccc(S(=O)(=O)Nc2ccccc2C(=O)N(Cc2cccc(C)n2)CC2CC2)cc1 , tested on Human Kv1.5 channels (Homo sapiens)?
-- reply 5.59

-- ask Tell me reported pIC50 for CC[C@H](NC(=O)c1cc(OC)ccc1NS(=O)(=O)CC)c1ccccc1 , tested with Human Kv1.5 channels (Homo sapiens).
-- reply 5.42

-- ask Request: pIC50, test system Human Kv1.5 channels (Homo sapiens), entry COc1ccc(NS(=O)(=O)c2ccc(C)cc2)c(C(=O)NC(C)Cc2ccccn2)c1 (centres unmarked)
-- reply 5.85

-- ask Item Cc1ccc(S(=O)(=O)Nc2ccccc2C(=O)N(CCc2ccccn2)CC2CC2)cc1 with Human Kv1.5 channels (Homo sapiens) - pIC50?
-- reply 5.30

-- ask Could you share what pIC50 was measured for Cc1cccc(NS(=O)(=O)c2ccc(Cl)cc2)c1C(=O)NC1CCCCC1 , tested on Human Kv1.5 channels (Homo sapiens)?
-- reply 5.32

-- ask Human Kv1.5 channels (Homo sapiens) / pIC50 / COc1ccc(S(=O)(=O)Nc2cc(C)ccc2C(=O)NC2CCCCC2)cc1 : value?
-- reply 5.47

-- ask For Human Kv1.5 channels (Homo sapiens), provide pIC50 of Cc1ccc(S(=O)(=O)Nc2ccccc2C(=O)N(Cc2cccnc2)CC2CC2)cc1 please.
-- reply 5.51

-- ask Identify the measured pIC50 of Cc1ccc(S(=O)(=O)Nc2ccccc2C(=O)N(Cc2ccccc2)Cc2ccncc2)cc1 for Human Kv1.5 channels (Homo sapiens).
-- reply 5.19

-- ask Provide the documented pIC50 with Human Kv1.5 channels (Homo sapiens) as the system for Cc1ccc(S(=O)(=O)Nc2ccc(F)cc2C(=O)N(Cc2ccccc2)Cc2cccnc2)cc1
-- reply 5.92
